tested on: EB–DNA conjugate (CT DNA); assay: EB-displacement studies (fluorescence of EB-DNA conjugate); assay type: binding, calf; details: λemission = 592 nm, final value, r up to 0.36
experimentalEndpoint: EB–DNA relative fluorescence emission intensity I/Io remaining (% of initial) (%)
Please give a number only; it is taken to be in %.

Give measured EB–DNA relative fluorescence emission intensity I/Io remaining (% of initial) for O=Cc1cc(F)ccc1[O-].O=Cc1cc(F)ccc1[O-].[Cu+2] [Complex 1, [Cu(5–F–salo)2]] (EB–DNA conjugate (CT DNA)).
55.2

Give measured EB–DNA relative fluorescence emission intensity I/Io remaining (% of initial) for CO.Cc1ccc2ccc3ccc(C)nc3c2n1.O=Cc1cc(F)ccc1[O-].[Cl-].[Cu+2] [Complex 3, [Cu(5–F–salo)(neoc)Cl].CH3OH] (EB–DNA conjugate (CT DNA)).
50.9

Give measured EB–DNA relative fluorescence emission intensity I/Io remaining (% of initial) for O=Cc1cc(F)ccc1[O-].O=[N+]([O-])[O-].[Cu+2].c1cnc2c(c1)ccc1cccnc12 [Complex 4, [Cu(5–F–salo)(phen)(NO3)]] (EB–DNA conjugate (CT DNA)).
51.6

Give measured EB–DNA relative fluorescence emission intensity I/Io remaining (% of initial) for O=Cc1cc(F)ccc1[O-].[Cl-].[Cu+2].c1ccc(Nc2ccccn2)nc1 [Complex 2, [Cu(5–F–salo)(bipyam)Cl]] (EB–DNA conjugate (CT DNA)).
55.5

----------
test: DPPH radical scavenging assay; type: biochemical; details: compound 0.1 mM, 30 min
Please go through the items and note down their DPPH% (30 min), % DPPH–scavenging ability.
Please give a number only; it is taken to be in %.

Could you please provide reported DPPH% (30 min), % DPPH–scavenging ability for Cc1cc(C(C)(C)C)c(O)c(C(C)(C)C)c1 [BHT, butylated hydroxytoluene, reference compound] ? Thanks!
61.30

Could you please provide reported DPPH% (30 min), % DPPH–scavenging ability for CC(Cc1ccc(O)c(O)c1)C(C)Cc1ccc(O)c(O)c1 (stereo not shown) [NDGA, nordihydroguaiaretic acid, reference compound] ? Thanks!
87.08

Could you please provide reported DPPH% (30 min), % DPPH–scavenging ability for CO.Cc1ccc2ccc3ccc(C)nc3c2n1.O=Cc1cc(F)ccc1[O-].[Cl-].[Cu+2] [Complex 3, [Cu(5–F–salo)(neoc)Cl].CH3OH] ? Thanks!
7.42

Could you please provide reported DPPH% (30 min), % DPPH–scavenging ability for O=Cc1cc(F)ccc1[O-].O=[N+]([O-])[O-].[Cu+2].c1cnc2c(c1)ccc1cccnc12 [Complex 4, [Cu(5–F–salo)(phen)(NO3)]] ? Thanks!
6.15

Could you please provide reported DPPH% (30 min), % DPPH–scavenging ability for O=Cc1cc(F)ccc1[O-].O=Cc1cc(F)ccc1[O-].[Cu+2] [Complex 1, [Cu(5–F–salo)2]] ? Thanks!
9.05

Could you please provide reported DPPH% (30 min), % DPPH–scavenging ability for O=Cc1cc(F)ccc1[O-].O=[N+]([O-])[O-].[Cu+2].c1ccc(-c2ccccn2)nc1 [Complex 5, [Cu(5–F–salo)(bipy)(NO3)]] ? Thanks!
7.19

Could you please provide reported DPPH% (30 min), % DPPH–scavenging ability for O=Cc1cc(F)ccc1[O-].[Cl-].[Cu+2].c1ccc(Nc2ccccn2)nc1 [Complex 2, [Cu(5–F–salo)(bipyam)Cl]] ? Thanks!
7.54

----------
System: CT DNA
Experiment: Binding study with CT DNA by UV-vis spectroscopy
Design: species or system calf
Conditions: first UV band listed in the cell (295–334 nm)
Protocol: Initially, the UV–vis spectra of complexes 1–5 (2.5 × 10^−5 – 1 × 10^−4 M) were recorded in the presence of incremental amounts of CT DNA (Figure 4), and the changes of the λmax of the bands observed in the spectra of the complexes were monitored as a means to study the interaction between complexes and CT DNA [50] and to calculate the corresponding DNA-binding constants (Kb). […]
experimentalEndpoint: ΔA/Aο, percentage of hyper-/hypo-chromism upon addition of CT DNA (%)
Please give a number only; it is taken to be in %.

Could you please provide reported ΔA/Aο, percentage of hyper-/hypo-chromism upon addition of CT DNA for O=Cc1cc(F)ccc1[O-].[Cl-].[Cu+2].c1ccc(Nc2ccccn2)nc1 [Complex 2, [Cu(5–F–salo)(bipyam)Cl]] ? Thanks!
−12

Could you please provide reported ΔA/Aο, percentage of hyper-/hypo-chromism upon addition of CT DNA for CO.Cc1ccc2ccc3ccc(C)nc3c2n1.O=Cc1cc(F)ccc1[O-].[Cl-].[Cu+2] [Complex 3, [Cu(5–F–salo)(neoc)Cl].CH3OH] ? Thanks!
−41

Could you please provide reported ΔA/Aο, percentage of hyper-/hypo-chromism upon addition of CT DNA for O=Cc1cc(F)ccc1[O-].O=[N+]([O-])[O-].[Cu+2].c1cnc2c(c1)ccc1cccnc12 [Complex 4, [Cu(5–F–salo)(phen)(NO3)]] ? Thanks!
−38

Could you please provide reported ΔA/Aο, percentage of hyper-/hypo-chromism upon addition of CT DNA for O=Cc1cc(F)ccc1[O-].O=[N+]([O-])[O-].[Cu+2].c1ccc(-c2ccccn2)nc1 [Complex 5, [Cu(5–F–salo)(bipy)(NO3)]] ? Thanks!
−72

Could you please provide reported ΔA/Aο, percentage of hyper-/hypo-chromism upon addition of CT DNA for O=Cc1cc(F)ccc1[O-].O=Cc1cc(F)ccc1[O-].[Cu+2] [Complex 1, [Cu(5–F–salo)2]] ? Thanks!
−34

----------
Please go through the items and note down their BSA-binding constant K.
molecular target: bovine serum albumin (BSA) (Bos taurus); construct: purchased Sigma–Aldrich Co; assay: Albumin binding by tryptophan fluorescence quenching (BSA); conditions: BSA; Scatchard equation
Sequence (P02769 25-607): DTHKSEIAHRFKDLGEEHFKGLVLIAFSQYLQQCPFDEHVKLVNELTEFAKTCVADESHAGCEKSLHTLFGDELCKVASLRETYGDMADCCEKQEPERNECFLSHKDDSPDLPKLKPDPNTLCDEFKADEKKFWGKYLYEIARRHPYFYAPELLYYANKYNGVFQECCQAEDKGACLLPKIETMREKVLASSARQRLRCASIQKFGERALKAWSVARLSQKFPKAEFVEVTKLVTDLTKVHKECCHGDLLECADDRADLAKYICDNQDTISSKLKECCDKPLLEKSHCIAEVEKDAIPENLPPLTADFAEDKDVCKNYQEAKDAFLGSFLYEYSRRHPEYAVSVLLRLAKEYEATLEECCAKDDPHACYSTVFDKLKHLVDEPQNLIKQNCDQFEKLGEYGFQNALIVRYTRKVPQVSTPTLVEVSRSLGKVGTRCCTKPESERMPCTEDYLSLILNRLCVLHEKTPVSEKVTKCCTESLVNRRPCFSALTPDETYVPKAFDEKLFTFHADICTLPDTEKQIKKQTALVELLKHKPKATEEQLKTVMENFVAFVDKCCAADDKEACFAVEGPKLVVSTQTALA

Give measured BSA-binding constant K for O=Cc1cc(F)ccc1[O-].[Cl-].[Cu+2].c1ccc(Nc2ccccn2)nc1 [Complex 2, [Cu(5–F–salo)(bipyam)Cl]] (bovine serum albumin (BSA) (Bos taurus)).
3.15 (±0.18) × 10^4 M^−1

Give measured BSA-binding constant K for O=Cc1cc(F)ccc1[O-].O=[N+]([O-])[O-].[Cu+2].c1cnc2c(c1)ccc1cccnc12 [Complex 4, [Cu(5–F–salo)(phen)(NO3)]] (bovine serum albumin (BSA) (Bos taurus)).
2.35 (±0.10) × 10^5 M^−1

Give measured BSA-binding constant K for O=Cc1cc(F)ccc1[O-].O=[N+]([O-])[O-].[Cu+2].c1ccc(-c2ccccn2)nc1 [Complex 5, [Cu(5–F–salo)(bipy)(NO3)]] (bovine serum albumin (BSA) (Bos taurus)).
3.23 (±0.12) × 10^5 M^−1

Give measured BSA-binding constant K for CO.Cc1ccc2ccc3ccc(C)nc3c2n1.O=Cc1cc(F)ccc1[O-].[Cl-].[Cu+2] [Complex 3, [Cu(5–F–salo)(neoc)Cl].CH3OH] (bovine serum albumin (BSA) (Bos taurus)).
2.51 (±0.10) × 10^5 M^−1

Give measured BSA-binding constant K for O=Cc1cc(F)ccc1[O-].O=Cc1cc(F)ccc1[O-].[Cu+2] [Complex 1, [Cu(5–F–salo)2]] (bovine serum albumin (BSA) (Bos taurus)).
4.05 (±0.02) × 10^4 M^−1

----------
Please go through the items and note down their BSA-quenching constant kq.
biological target: bovine serum albumin (BSA) (Bos taurus); construct: purchased Sigma–Aldrich Co; assay: Albumin binding by tryptophan fluorescence quenching (BSA); settings: BSA; from Stern–Volmer plots, τo 10^-8 s

Give measured BSA-quenching constant kq for O=Cc1cc(F)ccc1[O-].O=[N+]([O-])[O-].[Cu+2].c1cnc2c(c1)ccc1cccnc12 [Complex 4, [Cu(5–F–salo)(phen)(NO3)]] (bovine serum albumin (BSA) (Bos taurus)).
1.62 (±0.06) × 10^13 M^−1 s^−1

Give measured BSA-quenching constant kq for O=Cc1cc(F)ccc1[O-].[Cl-].[Cu+2].c1ccc(Nc2ccccn2)nc1 [Complex 2, [Cu(5–F–salo)(bipyam)Cl]] (bovine serum albumin (BSA) (Bos taurus)).
6.49 (±0.14) × 10^12 M^−1 s^−1

Give measured BSA-quenching constant kq for CO.Cc1ccc2ccc3ccc(C)nc3c2n1.O=Cc1cc(F)ccc1[O-].[Cl-].[Cu+2] [Complex 3, [Cu(5–F–salo)(neoc)Cl].CH3OH] (bovine serum albumin (BSA) (Bos taurus)).
2.75 (±0.10) × 10^13 M^−1 s^−1

Give measured BSA-quenching constant kq for O=Cc1cc(F)ccc1[O-].O=[N+]([O-])[O-].[Cu+2].c1ccc(-c2ccccn2)nc1 [Complex 5, [Cu(5–F–salo)(bipy)(NO3)]] (bovine serum albumin (BSA) (Bos taurus)).
1.87 (±0.09) × 10^13 M^−1 s^−1

Give measured BSA-quenching constant kq for O=Cc1cc(F)ccc1[O-].O=Cc1cc(F)ccc1[O-].[Cu+2] [Complex 1, [Cu(5–F–salo)2]] (bovine serum albumin (BSA) (Bos taurus)).
9.38 (±0.28) × 10^12 M^−1 s^−1

----------
Please go through the items and note down their ΔΙ/Ιο, percentage of EB–DNA fluorescence quenching.
System: EB–DNA conjugate (CT DNA)
Experiment: EB-displacement studies (fluorescence of EB-DNA conjugate)
Format: binding, calf
Conditions: [EB] = 20 µM, [DNA] = 26 µM, 592 nm
Procedure: EB is a well-known indicator of DNA intercalation, since its insertion in-between adjacent DNA base pairs may lead to the development of effective π–π stacking interactions. A solution containing the EB–DNA adduct presents an intense fluorescence emission band at 592 nm when excited at λex = 540 nm. […] The Stern–Volmer (KSV) constants (Table 6) of the complexes were calculated with the Stern–Volmer equation (Equation (S2)) and Stern–Volmer plots. […]
Please give a number only; it is taken to be in %.

Could you please provide reported ΔΙ/Ιο, percentage of EB–DNA fluorescence quenching for O=Cc1cc(F)ccc1[O-].O=Cc1cc(F)ccc1[O-].[Cu+2] [Complex 1, [Cu(5–F–salo)2]] ? Thanks!
44.8

Could you please provide reported ΔΙ/Ιο, percentage of EB–DNA fluorescence quenching for O=Cc1cc(F)ccc1[O-].O=[N+]([O-])[O-].[Cu+2].c1cnc2c(c1)ccc1cccnc12 [Complex 4, [Cu(5–F–salo)(phen)(NO3)]] ? Thanks!
48.4

Could you please provide reported ΔΙ/Ιο, percentage of EB–DNA fluorescence quenching for O=Cc1cc(F)ccc1[O-].[Cl-].[Cu+2].c1ccc(Nc2ccccn2)nc1 [Complex 2, [Cu(5–F–salo)(bipyam)Cl]] ? Thanks!
44.5

Could you please provide reported ΔΙ/Ιο, percentage of EB–DNA fluorescence quenching for CO.Cc1ccc2ccc3ccc(C)nc3c2n1.O=Cc1cc(F)ccc1[O-].[Cl-].[Cu+2] [Complex 3, [Cu(5–F–salo)(neoc)Cl].CH3OH] ? Thanks!
49.1
